Target: RR (Homo sapiens)
Construct: endogenous in cells; host or cells: established human cancer cell lines (MDA-MB-231, HCT-116; also A549, Panc1)
Sequence (P23921 whole entry): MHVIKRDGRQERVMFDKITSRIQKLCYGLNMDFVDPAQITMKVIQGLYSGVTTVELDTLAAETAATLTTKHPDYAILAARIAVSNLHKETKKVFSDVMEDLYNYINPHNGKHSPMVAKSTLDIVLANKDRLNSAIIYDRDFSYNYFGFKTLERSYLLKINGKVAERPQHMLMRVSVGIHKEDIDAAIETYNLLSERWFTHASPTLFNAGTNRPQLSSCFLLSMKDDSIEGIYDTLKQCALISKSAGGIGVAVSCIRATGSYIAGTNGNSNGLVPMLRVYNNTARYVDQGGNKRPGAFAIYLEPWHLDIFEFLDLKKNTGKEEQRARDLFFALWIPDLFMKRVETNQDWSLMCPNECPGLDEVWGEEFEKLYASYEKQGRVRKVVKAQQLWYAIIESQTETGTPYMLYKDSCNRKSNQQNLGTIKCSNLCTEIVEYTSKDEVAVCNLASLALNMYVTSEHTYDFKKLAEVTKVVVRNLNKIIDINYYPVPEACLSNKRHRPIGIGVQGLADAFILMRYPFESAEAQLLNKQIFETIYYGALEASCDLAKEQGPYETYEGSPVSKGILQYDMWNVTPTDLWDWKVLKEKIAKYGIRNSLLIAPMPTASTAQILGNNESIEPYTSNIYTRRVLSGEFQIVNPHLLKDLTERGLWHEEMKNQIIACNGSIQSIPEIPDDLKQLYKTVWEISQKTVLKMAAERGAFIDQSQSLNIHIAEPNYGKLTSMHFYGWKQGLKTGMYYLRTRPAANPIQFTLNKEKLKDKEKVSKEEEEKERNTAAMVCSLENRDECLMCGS
Sequence (P31350 whole entry partner): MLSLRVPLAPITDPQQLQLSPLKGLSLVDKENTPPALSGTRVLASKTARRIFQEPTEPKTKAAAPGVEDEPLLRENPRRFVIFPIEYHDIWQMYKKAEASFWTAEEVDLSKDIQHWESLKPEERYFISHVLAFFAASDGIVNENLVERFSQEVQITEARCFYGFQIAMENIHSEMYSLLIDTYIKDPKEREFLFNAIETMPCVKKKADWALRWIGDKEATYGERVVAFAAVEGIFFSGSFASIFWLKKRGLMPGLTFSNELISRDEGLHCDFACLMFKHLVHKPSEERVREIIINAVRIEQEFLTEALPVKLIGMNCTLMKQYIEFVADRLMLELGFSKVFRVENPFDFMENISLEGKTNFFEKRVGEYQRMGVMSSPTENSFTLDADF
Assay: In Vivo RR IC50 (Table 2)
Format: cell-based
Details: In Vivo RR IC50^b (μM), 10 μM, sub-column 10 μM
MEASURED_METRIC: IC50 (µM)
Field format: number, assumed µM, no unit text.

Q: What measured IC50 goes with O=C(CCCCCCCCC(=O)N/N=C/c1c(O)ccc2ccccc12)N/N=C/c1c(O)ccc2ccccc12 ?
Ans: 0.792

----------
Tested on: MDA-MB-231
Experiment: Combination experiment: gemcitabine with sublethal compound 2
Conditions: Homo sapiens, MDA-MB-231, read-out: Dm, Gemcitabine alone
MEASURED_METRIC: pIC50
Schema: pIC50 number; meaning minus log10 of the concentration expressed in molar units.

Q: What measured pIC50 goes with Nc1ccn([C@@H]2O[C@H](CO)[C@@H](O)C2(F)F)c(=O)n1 [Gemcitabine, reference compound] ?
Ans: 6.04

Source listed as patent US20180360782A1.
